Each entry below lists one item and its recorded IC50 value.
Experiment: Inhibition of 5-FAM tracer binding to WDR5 delta23 mutant (24 to 334 residues) (unknown origin) expressed in Escherichia coli Rosetta 2 (DE3) cells after 3 hrs by fluorescence polarization assay
Design: species or system Homo sapiens
Bridge positions count the residues as written; N and C are the ends. Square brackets hold non-standard residues; d marks the D form. Peptide text beside a SMILES is read from it. * marks the point of attachment. Arg(Me) = CNC(=N)NCCC[C@H](N)C(=O)O; d(αMeK) = C[C@@](N)(CCCCN)C(=O)O; dPhg = N[C@@H](C(=O)O)c1ccccc1; dOrn = NCCC[C@@H](N)C(=O)O; dDab = NCC[C@@H](N)C(=O)O; Isobutyryl = CC(C)C(=O)*; dDap = NC[C@@H](N)C(=O)O; Abu = CC[C@H](N)C(=O)O
Provide only the numeric value, understood in nM.

# count of solved cases: 4
[
  {
    "compound": "CC[C@@H]1NC(=O)[C@H](CCCNC(=N)N)NC(=O)[C@H](NC(=O)C(C)C)CCCNC(=O)[C@@H](c2ccccc2)NC1=O (Isobutyryl-[dOrn]R[Abu][dPhg]; lactam 1-C)",
    "IC50, nM": 164
  },
  {
    "compound": "CC[C@@H]1NC(=O)[C@H](CCCNC(=N)NC)NC(=O)[C@](C)(NC(=O)C(C)C)CCCCNC(=O)[C@@H](c2ccccc2)NC1=O (Isobutyryl-[d(αMeK)][Arg(Me)][Abu][dPhg]; lactam 1-C)",
    "IC50, nM": 1.1
  },
  {
    "compound": "CC[C@@H]1NC(=O)[C@H](CCCNC(=N)N)NC(=O)[C@H](NC(=O)C(C)C)CCNC(=O)[C@@H](c2ccccc2)NC1=O (Isobutyryl-[dDab]R[Abu][dPhg]; lactam 1-C)",
    "IC50, nM": 6.2
  },
  {
    "compound": "CC[C@@H]1NC(=O)[C@H](CCCNC(=N)N)NC(=O)[C@](C)(NC(=O)C(C)C)CCCCN(C)C(=O)[C@@H](c2ccc(F)cc2)NC1=O.O=C(O)C(F)(F)F",
    "IC50, nM": 1.6
  }
]

Query: Provide only the value of recorded IC50 for CC[C@@H]1NC(=O)[C@H](CCCNC(=N)N)NC(=O)[C@H](NC(=O)C(C)C)CNC(=O)[C@@H](c2ccccc2)NC1=O (Isobutyryl-[dDap]R[Abu][dPhg]; lactam 1-C)
Reply: 1190

----------
Assay: Inhibition of 5-FAM tracer binding to WDR5 delta23 mutant (24 to 334 residues) (unknown origin) expressed in Escherichia coli Rosetta 2 (DE3) cells after 3 hrs by fluorescence polarization assay
Set-up: species or system Homo sapiens
pKi: −log10 of the molar value. Bridge positions count the residues as written; N and C are the ends. Square brackets hold non-standard residues; d marks the D form. Peptide text beside a SMILES is read from it. * marks the point of attachment. Arg(Me2s) = CN=C(NC)NCCC[C@H](N)C(=O)O; Arg(Me) = CNC(=N)NCCC[C@H](N)C(=O)O; d(αMeK) = C[C@@](N)(CCCCN)C(=O)O; dPhg = N[C@@H](C(=O)O)c1ccccc1; dOrn = NCCC[C@@H](N)C(=O)O; dDab = NCC[C@@H](N)C(=O)O; Isobutyryl = CC(C)C(=O)*; Abu = CC[C@H](N)C(=O)O
quantity.measured: pKi

[
  {
    "compound": "CC[C@@H]1NC(=O)[C@H](CCCNC(=N)N)NC(=O)[C@](C)(NC(=O)C(C)C)CCNC(=O)[C@@H](c2ccccc2)NC1=O.O=C(O)C(F)(F)F",
    "observed.value": "> 9.00"
  },
  {
    "compound": "CC[C@@H]1NC(=O)[C@H](CCCNC(=N)N)NC(=O)[C@](C)(NC(=O)C(C)C)CCCCN(C)C(=O)[C@@H](c2ccccc2)NC1=O.O=C(O)C(F)(F)F",
    "observed.value": "> 9.00"
  },
  {
    "compound": "CC[C@@H]1NC(=O)[C@H](CCCNC(=N)N)NC(=O)[C@H](NC(=O)C(C)C)CCCCNC(=O)[C@@H](c2ccccc2)NC1=O (Isobutyryl-[dK]R[Abu][dPhg]; lactam 1-C)",
    "observed.value": 7.22
  },
  {
    "compound": "CC[C@@H]1NC(=O)[C@H](CCCNC(=N)N)NC(=O)[C@H](NC(=O)C(C)C)CCNC(=O)[C@@H](c2ccccc2)NC1=O (Isobutyryl-[dDab]R[Abu][dPhg]; lactam 1-C)",
    "observed.value": 9.10
  },
  {
    "compound": "CC[C@@H]1NC(=O)[C@H](CCCN/C(=N/C)NC)NC(=O)[C@](C)(NC(=O)C(C)C)CCCCNC(=O)[C@@H](c2ccccc2)NC1=O (Isobutyryl-[d(αMeK)][Arg(Me2s)][Abu][dPhg]; lactam 1-C)",
    "observed.value": "> 9.00"
  },
  {
    "compound": "CC[C@@H]1NC(=O)[C@H](CCCNC(=N)N)NC(=O)[C@](C)(NC(=O)C(C)C)CCCCN(C)C(=O)[C@@H](c2ccc(F)cc2)NC1=O.O=C(O)C(F)(F)F",
    "observed.value": "> 9.00"
  },
  {
    "compound": "CC[C@@H]1NC(=O)[C@H](CCCNC(=N)N)NC(=O)[C@H](NC(=O)C(C)C)CCCNC(=O)[C@@H](c2ccccc2)NC1=O (Isobutyryl-[dOrn]R[Abu][dPhg]; lactam 1-C)",
    "observed.value": 7.48
  },
  {
    "compound": "CC[C@@H]1NC(=O)[C@H](CCCNC(=N)NC)NC(=O)[C@](C)(NC(=O)C(C)C)CCNC(=O)[C@@H](c2ccccc2)NC1=O.O=C(O)C(F)(F)F",
    "observed.value": "> 9.00"
  },
  {
    "compound": "CC[C@@H]1NC(=O)[C@H](CCCNC(=N)N)NC(=O)[C@](C)(NC(=O)C(C)C)CCCCN(C)C(=O)[C@@H](c2ccc(Cl)cc2)NC1=O.O=C(O)C(F)(F)F",
    "observed.value": "> 9.00"
  },
  {
    "compound": "CC[C@@H]1NC(=O)[C@H](CCCNC(=N)N)NC(=O)[C@](C)(NC(=O)C(C)C)CCCNC(=O)[C@@H](c2ccccc2)NC1=O.O=C(O)C(F)(F)F",
    "observed.value": "> 9.00"
  }
]

Here is the next item to consider.
Query: Provide only the value of recorded pKi for CC[C@@H]1NC(=O)[C@H](CCCNC(=N)NC)NC(=O)[C@](C)(NC(=O)C(C)C)CCCCNC(=O)[C@@H](c2ccccc2)NC1=O (Isobutyryl-[d(αMeK)][Arg(Me)][Abu][dPhg]; lactam 1-C)
Reply: > 9.00

----------
Each entry below lists one item and its recorded half-life value.
Test: Half life in mouse microsomes
Assay type: ADME, Microsome

# count of solved cases: 6
[
  {
    "smiles.str": "CC[C@@H]1NC(=O)[C@H](CCCNC(=N)N)NC(=O)[C@](C)(NC(=O)C(C)C)CCCCN(C)C(=O)[C@@H](c2ccccc2)NC1=O.O=C(O)C(F)(F)F",
    "quantity.measured": "half-life",
    "observed.value": "> 1 h"
  },
  {
    "smiles.str": "CC[C@@H]1NC(=O)[C@H](CCCNC(=N)N)NC(=O)[C@](C)(NC(=O)C(C)C)CCCCN(C)C(=O)[C@@H](c2ccc(F)cc2)NC1=O.O=C(O)C(F)(F)F",
    "quantity.measured": "half-life",
    "observed.value": "> 1 h"
  },
  {
    "smiles.str": "CC[C@@H]1NC(=O)[C@H](CCCNC(=N)N)NC(=O)[C@](C)(NC(=O)C(C)C)CCCCNC(=O)[C@@H](c2ccccc2)NC1=O.O=C(O)C(F)(F)F",
    "quantity.measured": "half-life",
    "observed.value": "> 1 h"
  },
  {
    "smiles.str": "CCC(CC)(NC(=O)C(C)C)C(=O)N[C@@H](CCCNC(=N)N)C(=O)NC1(C(=O)NC(c2ccccc2)c2ccccc2)CCCC1",
    "quantity.measured": "half-life",
    "observed.value": "0.733 h"
  },
  {
    "smiles.str": "CC[C@@H]1NC(=O)[C@H](CCCNC(=N)N)NC(=O)[C@](C)(NC(=O)C(C)C)CCNC(=O)[C@@H](c2ccccc2)NC1=O.O=C(O)C(F)(F)F",
    "quantity.measured": "half-life",
    "observed.value": "> 1 h"
  },
  {
    "smiles.str": "CC[C@@H]1NC(=O)[C@H](CCCNC(=N)NC)NC(=O)[C@](C)(NC(=O)C(C)C)CCNC(=O)[C@@H](c2ccccc2)NC1=O.O=C(O)C(F)(F)F",
    "quantity.measured": "half-life",
    "observed.value": "> 1 h"
  }
]

Query: Provide only the value of recorded half-life for CC[C@@H]1NC(=O)[C@H](CCCNC(=N)N)NC(=O)[C@](C)(NC(=O)C(C)C)CCCCN(C)C(=O)[C@@H](c2ccc(Cl)cc2)NC1=O.O=C(O)C(F)(F)F
Reply: > 1 h

Query: Provide only the value of recorded half-life for CC[C@@H]1NC(=O)[C@H](CCCNC(=N)N)NC(=O)[C@](C)(NC(=O)C(C)C)CCCNC(=O)[C@@H](c2ccccc2)NC1=O.O=C(O)C(F)(F)F
Reply: > 1 h
